Just for reference, patent US7482379B2 is where these values come from.

molecular target: Caspase-9 (Homo sapiens, UniProt P55211); assay: Caspase-9 progress curve inhibition assay; conditions: second-order rate constant; Ac-LEHD-AFC substrate; Hepes buffer pH 7.0 with 0.7 M sodium citrate
Sequence (P55211 1-315 limits assumed): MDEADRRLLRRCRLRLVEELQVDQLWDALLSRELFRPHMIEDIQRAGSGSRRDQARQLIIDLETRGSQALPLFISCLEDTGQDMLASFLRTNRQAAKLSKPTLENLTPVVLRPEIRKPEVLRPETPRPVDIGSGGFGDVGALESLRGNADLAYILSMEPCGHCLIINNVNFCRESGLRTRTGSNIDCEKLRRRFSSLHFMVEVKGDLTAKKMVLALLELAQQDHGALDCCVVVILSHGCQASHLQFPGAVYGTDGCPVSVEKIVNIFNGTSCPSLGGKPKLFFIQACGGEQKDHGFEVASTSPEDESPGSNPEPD
Sequence (P55211 331-416 limits assumed): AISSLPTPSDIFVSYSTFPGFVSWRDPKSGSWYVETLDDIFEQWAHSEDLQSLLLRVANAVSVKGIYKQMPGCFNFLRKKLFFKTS
quantity measured: k2 Caspase-9

- molecule: "CC(C)C[C@H](NC(=O)OCc1ccccc1)C(=O)N[C@@H](CCC(=O)O)C(=O)N[C@H](C(=O)NN(CC(=O)O)C(=O)/C=C/C(=O)NCCc1ccccc1)[C@@H](C)O (relative stereo)"
  observed: "1,760 M^−1s^−1"

Would you be so kind as to report k2 Caspase-9 for each listed record?
1. CC(C)C[C@H](NC(=O)OCc1ccccc1)C(=O)N[C@@H](CCC(=O)O)C(=O)N[C@H](C(=O)NN(CC(=O)O)C(=O)/C=C/C(=O)NCc1ccc(F)cc1)[C@@H](C)O (relative stereo)
2. CC(C)C[C@H](NC(=O)OCc1ccccc1)C(=O)N[C@@H](CCC(=O)O)C(=O)N[C@H](C(=O)NN(CC(=O)O)C(=O)/C=C/C(=O)NCc1ccccc1)[C@@H](C)O (relative stereo)

1. 1,695 M^−1s^−1
2. 1,400 M^−1s^−1
